Provide the recorded TGI for the entries that follow.
Test system: HOP-62 NSCLC
Test: NCI tumour cell line growth inhibition, 48 h

Data request: Quick check: TGI of "CN(C)CCO/N=C1/C=C2CC[C@H]3[C@@H]4CC[C@H](O)[C@@]4(C)CC[C@@H]3[C@@]2(C)CC1" ?
Data returned: > 87.4 µM

Data request: Which TGI value belongs to CC(=O)OCC1OC(n2c(=O)n(-c3ccccc3)c(=O)c3ccccc32)C(OC(C)=O)C(OC(C)=O)C1OC(C)=O (stereo not given) ?
Data returned: > 100 µM

Data request: // TGI lookup, key: "Cn1c(=O)c2[nH]c(CS(=O)(=O)Cc3nc4c([nH]3)c(=O)n(C)c(=O)n4C)nc2n(C)c1=O"
Data returned: > 100 µM

Data request: Could you tell me which TGI is on file for CC1NOC(=O)C1N=Nc1ccccc1Cl (stereo not given) ?
Data returned: > 100 µM

Data request: I have this molecule here, COC12C=CC(CC1)C1C(=O)c3c(C)c(C)n(C)c3C(=O)C12 (stereo not given) , and I need its recorded TGI.
Data returned: > 100 µM

Data request: // returns reported TGI for input CC(NNC(=S)N1CCCCCC1)c1ccc2ccccc2n1 (stereo not given)
Data returned: > 100 µM

Data request: State the recorded TGI for this entry: O=[N+]([O-])c1cccc2nccc(NCC(O)CO)c12 (stereo not given)
Data returned: 33.6 µM

Data request: Form field: reported TGI of "Cc1cc(S(=O)(=O)Nc2nnc(-c3ccccc3)c(-c3ccccc3)n2)c(SCc2ccccc2)cc1Cl"
Data returned: 39.6 µM

Data request: Query (molecule): "Cc1cc2c(F)c(Oc3ncnn4cc(OC[C@@H](C)OC(=O)[C@H](C)N)c(C)c34)ccc2[nH]1" ; field requested: TGI
Data returned: 26.9 µM

Data request: GET /values?readout=TGI&item= "COc1cc2c(/C=C3/C(=O)Nc4ccccc43)c(Cl)n(Cc3ccccc3[N+](=O)[O-])c2cc1C"
Data returned: 27.6 µM

Data request: Entry under review: "CNC(=O)CCNC(=O)CCC(=O)OC" . Reported TGI?
Data returned: > 100 µM

Data request: I would be grateful if you could share the reported TGI for "CCSc1nc(N=Cc2cccs2)c2cn[nH]c2n1" .
Data returned: > 100 µM

Data request: What TGI value was documented for this molecule, CC(C)(C)N1NC1C1NN1C(C)(C)C (stereo not given) ?
Data returned: > 100 µM

Data request: Using the record for "Cc1c2c(n(CCc3ccccc3)c1C)NN=C(C#N)S2(=O)=O" , report its TGI.
Data returned: > 100 µM

Data request: Which TGI value is on record for "O=S1(=O)C[C@@H](O)[C@H](O)CS1" ?
Data returned: > 100 µM

Data request: Returns the measured TGI for the input molecule. Input: "CC1=Cc2cc3[n-]c(cc4nc(cc5[n-]c(cc1n2)cc5C)C(C)=C4CCC(=O)O)c(CCC(=O)O)c3C.[Pd+2]"
Data returned: 34.3 µM

Data request: Given the molecule O=C1CC2(CCC(O)(c3ccc(Cl)cc3)C(C(=O)c3ccc(Cl)cc3)C2)C(=O)c2ccccc2N1 (stereo not given) , what is its reported TGI?
Data returned: > 100 µM

Data request: Quick one: TGI of "C=C[C@@]1(C)CC(=O)[C@]2(O)[C@@]3(C)[C@@H](OC(C)=O)CCC(C)(C)[C@@H]3[C@H](OC(C)=O)[C@H](OC(C)=O)[C@@]2(C)O1" ?
Data returned: > 100 µM

Data request: Returns the measured TGI for the input molecule. Input: "O=C1CCC2(C=C(Br)C(=O)C(Br)=C2)O1"
Data returned: 39.8 µM

Data request: Form field: reported TGI of CC(C)CC1c2[nH]c3ccccc3c2C[C@H]2C(=O)NC(CCC(=O)OC(C)(C)C)C(=O)N12 (stereo not given in full)
Data returned: 56.2 µM

Data request: What value of measured TGI is listed for O=C1CCCc2cc3c(cc21)CCC3C(=O)O (stereo not given) ?
Data returned: > 100 µM

Data request: I'd like to know its TGI. The molecule in question is O=C(O)C1CC(c2ccccc2)=NN1c1ccccc1 (stereo not given)
Data returned: > 100 µM

Data request: Quick one: TGI for "O=c1c2cccnc2nc2ccc3c[nH][nH]c3c12" ?
Data returned: > 10 µM

Data request: What does the data say about its TGI? Entry: "OCCCCC#Cc1ccccc1C#Cc1ccccc1C(F)(F)F"
Data returned: > 100 µM

Data request: Item under review: "CCCCCc1c2nc(c(CCCCC)c3ccc([nH]3)c(CCCCC)c3ccc([nH]3)c(CCCCC)c3nc1C=C3)C=C2" . Reported TGI?
Data returned: > 100 µM

Data request: Need TGI, item "O=C(O)CN1CCN(CC(=O)O)CCN(CC(=O)O)CCN(CC(=O)O)CC1"
Data returned: > 100 µM

Data request: Quick one: TGI of "O=[N+]([O-])C(=C(N1CCOCC1)N1CCOCC1)/C(Cl)=C(\Cl)[N+](=O)[O-]" ?
Data returned: 29.8 µM

Data request: Entry "O=S(=O)(c1ccc(I)cc1)N(c1ccccc1)S(=O)(=O)C(F)(F)C(F)(F)C(F)(F)C(F)(F)F" has what TGI?
Data returned: 66.6 µM

Data request: Quick check: TGI of CC1[C@@H](OCc2ccccc2)COC(=O)N1Cc1ccccc1 (stereo not given in full) ?
Data returned: > 100 µM

Data request: Fill in: TGI of "O=C1c2ccccc2-c2c1c1ccccc1c(=O)n2CCCN1CCOCC1" is ___
Data returned: 18.7 µM

Data request: # lookup: TGI of COc1ccc(SC(C)(SC)c2ccccn2)c(OC)n1 (stereo not given)
Data returned: > 100 µM

Data request: Requested field: TGI. Item: COC(=N)C12C(N)=NC(OC)(OC)C1(C#N)C21C(=O)N(c2ccccc2)N=C1C (stereo not given)
Data returned: > 100 µM

Data request: Using the record for "CC1(C)N=C(N)N=C(N)N1c1cc(Cl)ccc1Cl" , report its TGI.
Data returned: > 100 µM

Data request: Name the reported TGI value associated with the molecule O=C1/C(=C\c2ccc(-c3ccc(Cl)cc3Cl)o2)SC2N=C(COc3ccc(Cl)cc3)NN12 (stereo not given)
Data returned: > 100 µM

Data request: Value lookup for TGI; key = "C=C[C@H]1CN2CCc3c([nH]c4c([C@H]5CCCN5C)c(O)ccc34)[C@@H]2C[C@@H]1C[C@H]1c2[nH]c3ccccc3c2CCN1C"
Data returned: 3 µM

Data request: Quick check: TGI of CCC1(N=[N+]=[N-])C(=O)Nc2cc(C)ccc2C1=O (stereo not given) ?
Data returned: > 100 µM

Data request: Which measured TGI value corresponds to "O=c1cc(-c2ccccc2)nc2n1CCN2Cc1ccccc1" ?
Data returned: > 100 µM

Data request: Quick one: TGI of "CC(=O)N1c2ccccc2Sc2cc(C(O)(C(F)(F)F)C(F)(F)F)ccc21" ?
Data returned: > 10 µM

Data request: Report TGI for "O=C1C=Cc2ccccc2/C1=C/c1[nH]c(=O)[nH]c1O" please.
Data returned: 35 µM

Data request: What measured TGI goes with COC(=O)C1=CC[C@@H]2C(C(=O)O)=CO[C@@H](OC3OC(CO)C(O)C(O)C3O)[C@H]12 (stereo not given in full) ?
Data returned: > 300 µM
